RUN_DESCRIPTION: Plasma protein binding in human
Type: ADME, cell-free
CONDITION: read-out: PPB
OUTCOME_MEASURE: fraction unbound

CC(=O)N1C[C@H]2CC(c3ccc(OCCOc4c(Cl)cc(C)cc4Cl)cc3)=C(C(=O)N(Cc3cccc(C)c3C)C3CC3)[C@@H](C1)N2: < 0.01

Proceeding to the next molecule to report its fraction unbound.
# lookup: fraction unbound of O=C(C1=C(c2ccc(CCCOc3c(F)ccc(F)c3Cl)cc2)C[C@@H]2CNC[C@H]1N2)N(Cc1cccc(Cl)c1Cl)C1CC1
< 0.01

====

RUN_DESCRIPTION: Oral bioavailability in human
Assay type: ADME, organism-based
CONDITION: in vivo
OUTCOME_MEASURE: bioavailability (%)
One number for each entry, in %.

# lookup: bioavailability of COCCCOc1cc(C[C@@H](C[C@H](N)[C@@H](O)C[C@H](C(=O)NCC(C)(C)C(N)=O)C(C)C)C(C)C)ccc1OC
4
